Measured values drawn from PubChem BioAssay AID1895 for this set.

target: MEK5 PB1 domain binding to MEKK2 (MAP3K2) mutant PB1, human; assay: mutant MEKK2 PB1-MEK5 interaction blockers – biochemical, bead multiplex flow cytometry, dose response (AID 1895); details: Bead-based multiplex flow cytometry
Activity calls are given as the source filed them. The rule behind the calls is not given here.
Possible outcomes: Y = active, N = inactive

molecule	targetSystem	answerLabel
C#CCOCCOCCOCCNc1nc(N2CCN(C(=O)[C@H](Cc3ccc(O)cc3)n3cc([C@@H](N)C(C)CC)nn3)CC2)nc(N2CCN(C(=O)[C@H](Cc3cc4ccccc4[nH]3)n3cc([C@@H](N)Cc4ccc(O)cc4)nn3)CC2)n1 (some centres not stated)	MEK5 PB1 domain binding to MEKK2 (MAP3K2) mutant PB1, human	N
Cc1nn2c(N)csc2nc1=O	MEK5 PB1 domain binding to MEKK2 (MAP3K2) mutant PB1, human	N
CCCCCc1cc(=O)oc2c(C(CCN3CCCC(C)C3)c3ccc4c(c3)OCO4)c(OC)cc(OC)c12 (configuration not stated)	MEK5 PB1 domain binding to MEKK2 (MAP3K2) mutant PB1, human	N
COc1ccc(NC(=O)N(Cc2cc3cc(C)ccc3[nH]c2=O)CC2CCCO2)cc1 (configuration not stated)	MEK5 PB1 domain binding to MEKK2 (MAP3K2) mutant PB1, human	N
CCC(/C=C1\Sc2ccc(OC)cc2N1CC)=C\c1sc2ccc(OC)cc2[n+]1CCCS(=O)(=O)[O-]	MEK5 PB1 domain binding to MEKK2 (MAP3K2) mutant PB1, human	N
C#CCOCCOCCOCCNc1nc(N2CCN(C(=O)[C@H](Cc3cc4ccccc4[nH]3)n3cc([C@@H](N)C(C)CC)nn3)CC2)nc(N2CCN(C(=O)[C@H](Cc3cc4ccccc4[nH]3)n3cc([C@@H](N)Cc4ccc(O)cc4)nn3)CC2)n1 (some centres not stated)	MEK5 PB1 domain binding to MEKK2 (MAP3K2) mutant PB1, human	Y
CN(c1ccccc1)c1ccc(/C=c2\s/c(=C(/C#N)C(=O)C(C)(C)C)n(Cc3ccco3)c2=O)cc1	MEK5 PB1 domain binding to MEKK2 (MAP3K2) mutant PB1, human	N
